# experiment: Solubility in Milli-Q water, examined with naked eye
# Assay type: physicochemical
# stated conditions: thermodynamic from solid; arbitrary amount in 1 mL Milli-Q water, room temperature, clear solution by naked eye; not the maximum solubility; read-out: Solubility in H2O
Where a name gives a salt, the structure may show the parent alone.
# solubility per entry
Report only the number, with the unit µg/mL understood.

Reference set (5 entries):
[
  {
    "compound": "Cc1cccc(F)c1C(=O)N1CCC[C@H](C(=O)Nc2ccc(COC(=O)CNC(=O)CN)c(C(F)(F)F)c2)[C@@H]1c1ccc(NC2CCCC2)cc1 [Example 13]",
    "solubility (µg/mL)": 10000
  },
  {
    "compound": "Cc1ccc(NC(=O)[C@H]2CCCN(C(=O)c3c(C)cccc3F)[C@H]2c2ccc(N(C3CCCC3)P(=O)(O)OC(=O)C(C)C)cc2)cc1C(F)(F)F [Example 4]",
    "solubility (µg/mL)": 1000
  },
  {
    "compound": "Cc1cccc(F)c1C(=O)N1CCC[C@H](C(=O)Nc2ccc(COC(=O)[C@@H](NC(=O)CN)C(C)C)c(C(F)(F)F)c2)[C@@H]1c1ccc(NC2CCCC2)cc1 [Example 15]",
    "solubility (µg/mL)": 5000
  },
  {
    "compound": "Cc1ccc(NC(=O)[C@H]2CCCN(C(=O)c3c(C)cccc3F)[C@H]2c2ccc(N(C(=O)OCc3ccc(OP(=O)(O)O)cc3)C3CCCC3)cc2)cc1C(F)(F)F [Example 8]",
    "solubility (µg/mL)": 1000
  },
  {
    "compound": "Cc1ccc(NC(=O)[C@H]2CCCN(C(=O)c3c(C)cccc3F)[C@H]2c2ccc(N(C(=O)CNC(=O)CN)C3CCCC3)cc2)cc1C(F)(F)F [Example 5]",
    "solubility (µg/mL)": 10000
  }
]

Query: # return recorded solubility for entry Cc1cccc(F)c1C(=O)N1CCC[C@H](C(=O)Nc2ccc(COC(=O)C(N)C(C)C)c(C(F)(F)F)c2)[C@@H]1c1ccc(NC2CCCC2)cc1 (stereo in doubt) [Example 17]
Result: 4000

Query: # return recorded solubility for entry Cc1cccc(F)c1C(=O)N1CCC[C@H](C(=O)Nc2ccc(COCOP(=O)(O)O)c(C(F)(F)F)c2)[C@@H]1c1ccc(NC2CCCC2)cc1 [Example 22]
Result: 15000

Query: # return recorded solubility for entry Cc1cccc(F)c1C(=O)N1CCC[C@H](C(=O)Nc2ccc(COC(=O)[C@@H](NC(=O)[C@@H](N)C(C)C)C(C)C)c(C(F)(F)F)c2)[C@@H]1c1ccc(NC2CCCC2)cc1 [Example 16]
Result: 5000

Query: # return recorded solubility for entry Cc1ccc(NC(=O)[C@H]2CCCN(C(=O)c3c(C)cccc3F)[C@H]2c2ccc(N(C(=O)CNC(=O)[C@@H](N)CCCN)C3CCCC3)cc2)cc1C(F)(F)F [Example 6, dihydrochloride]
Result: 5000

Query: # return recorded solubility for entry Cc1cccc(F)c1C(=O)N1CCC[C@H](C(=O)Nc2ccc(COC(=O)CNC(=O)[C@@H](N)C(C)C)c(C(F)(F)F)c2)[C@@H]1c1ccc(NC2CCCC2)cc1 [Example 14]
Result: 5000

The measurements presented in this section are drawn from patent US11254695B2.
